- test-protocol: folding stability dG unfold from chymotrypsin proteolysis; higher = more stable
# folding stability dG unfold annotations
property-name: folding stability dG unfold (kcal/mol)

{"columns": ["residue-string", "quantity-unit", "numeric-result"],
 "data": [
  ["SAGGGMESRTLTLPKEEIEKVKEEIKKASNLDIKVTTKKLPNGEYELTITFSNPEDVEKFEKKLGIESAGGS [r16_172_JUSTAS]", "kcal/mol", 3.05],
  ["SAGGMKITLPPGAEITEVFELPDGQLLLRVRHKDTGKTEVVPASDLEIEIEPGEEVEVEIFRVPKEDLSAGG [r13_173_TrROS_Hall]", "kcal/mol", 1.45],
  ["SAGMSLVPLEELARAWAEERGLPVLDVEVPESRSPATRHVTITLTLRDPATGALTTETRELVIPEEELGSAG [r5_421_JUSTAS]", "kcal/mol", 0.583],
  ["SAMYVRITVTFETPDGTRTVTIEIPPSEVEAGKPLSEEELKALAEEIAAKDPNATITEITIERFPESLESAG [r14_373_JUSTAS]", "kcal/mol", 3.87],
  ["SAGGMTLTIEIVVPPGTTVEELKKALEELGYEITSIEVEYDPETDLVTVRMEIRLPPPPPVSEEEKKSAGGS [r16_584_TrROS_Hall]", "kcal/mol", 3.23],
  ["SAGGSAGGSAGENKPIKVLVFLEKEDEYYEELFEFDSPEEIEEWLKKIPKDYKVKKVIVFSAGGSAGGSAGG [r17_410_TrMRF]", "kcal/mol", 3.95],
  ["SAGGSAYGYFYEYKIRFNGQDLSIALPAGDMEKLKDLPGVEIEPRRPEEPPPPPKEEERDPDGKKKSAGGSA [r15_443_TrROS]", "kcal/mol", 2.98],
  ["SMRVTIMIPVPPGLKNLKLEFKLPYPDGREVDVDIQVDPNYITITVEMNNPGQMDWVQERFQEEIEKLLGSA [r9_790_TrROS]", "kcal/mol", 4.09],
  ["SAGGSAGGSKITSIQPHDGFWRIEIKPDGKPQERWINMDELPPNIKIPPGYKVKIEPFSPGDMSAGGSAGGS [r12_1005_TrROS]", "kcal/mol", -0.769],
  ["SAGGSAGGANTVTIELPNGFRITLNDDGTITISYYDPETGELVKTVTIKLPPPPPVVVVHEDDKSAGGSAGG [r6_572_TrROS_Hall]", "kcal/mol", 3.39],
  ["SAGGKPNEKVKIKIKNKDGSEETIEIKVDEEVKIKIKFNGEEKEITIKKGETLTITLENAEIEVEKVSAGGS [r16_456_TrROS_Hall]", "kcal/mol", 1.83],
  ["SAGGSAGGSAGGKILVITAKIEDIPEIIEAAKKLGIDSVIIDIPETKEKIIITKDSVKLISAGGSAGGSAGG [r7_564_TrMRF]", "kcal/mol", 1.76],
  ["SAMLTILSVETHTLPNGEEIVTVTLKTPDLETLDALLAELGLTGTRDPDDPQVVTITTSREKVQEIKEKSAG [r14_777_JUSTAS]", "kcal/mol", 4.71],
  ["SAGGSAGGSAVVALTPDGALAVWFPEKGVVVVYNPATGTYTVLTVDADNTVTLEDVPPNTDVFSAGGSAGGS [r12_997_TrMRF]", "kcal/mol", 1.13],
  ["SAMVLRLVVTVTGKIGDSLSTTTITREVSLEEYSEEELEALAEAVADAIRAANPEATVSLSILPEEELESAG [r14_723_JUSTAS]", "kcal/mol", 2.57],
  ["SAGGEETVTLELELEFEPGMTEEELEEKARELAEALAEELGLEVEVEVRVERDEDGRVRVTVEVRVKSAGGS [r16_279_TrROS_Hall]", "kcal/mol", 2.06],
  ["SMLNIPSDWKVITIKLEYKVEPGVSEEEVKEKAIEELKKKFPKNTKIEVEVTPDPETGTVTIKITIIIKKSA [r9_657_JUSTAS]", "kcal/mol", 1.38],
  ["SAGWKIKLENIEFFPNGRIRVMFEIEDPNGRPWRVQAQFDPDNPGKIKIKVENPDNGQEQEITFTIKPPSAG [r5_345_TrROS]", "kcal/mol", 4.13],
  ["SAGGSAGGSNKPVYFRAKIRNPDGKPIGEIEIPAKFDSLEDARSFAENLAKDLPGYKVEIELVSAGGSAGGS [r20_201_TrROS]", "kcal/mol", 1.38],
  ["SAGGSAGGSDVTVTEYDVTLTVDVTFTAPDANGNPVTTTTPVTIPLKVTVFDFGTARLVVVEGSAGGSAGGS [r20_58_TrMRF]", "kcal/mol", 3.82],
  ["SAGGSAGGSAGPDKPIYVMIKFEHPGRKYTHSFEFDSPEDIEEVLDRLPPGYEIKEVEIFSAGGSAGGSAGG [r17_410_TrROS]", "kcal/mol", 0.946],
  ["SAGGSAGGSMKYYKTKDGKIVKAPPIETVKLKLKLEINGKKIEIEIEMSKEEIDKLLKELEKKSAGGSAGGS [r20_148_TrROS_Hall]", "kcal/mol", 1.27],
  ["SAGGSAGGSAGGMIKVTFKIPGKNETIEIDFDSEEELEEKFKELREKLGYNIEVVEIEESAGGSAGGSAGGS [r10_1087_JUSTAS]", "kcal/mol", 2.19],
  ["SAGGSAGGSEEKTVLARIKITFPDGEKREIEVEMTLDELKKLLEELGLSEEEVKIEVELVPLPSAGGSAGGS [r20_154_TrROS_Hall]", "kcal/mol", 3.56],
  ["SAGGSAGGGTVLAEEEEPETGLVRRLVRLPDGTLVESVSLVDPETGEVLSEEVLRETPLPPPGLSAGGSAGG [r6_928_JUSTAS]", "kcal/mol", 1.41],
  ["SAGGSMSAEELREKIAADPRISLDDVTVTVTRTPDSVTVTVTLKDPNDPVYVEAEERARALFAELASAGGSA [r2_3_JUSTAS]", "kcal/mol", -1],
  ["SAGGKKVVIVFDVENLTPEQIRELVRKAIESLPDPENVVIVANVTSPATVEELAELAKEHPEVKFVVGSAGG [r13_718_TrMRF]", "kcal/mol", 3.45]
]}

---

- test-protocol: folding stability dG unfold (combined trypsin and chymotrypsin); higher = more stable

{"columns": ["residue-string", "quantity-unit", "cmp", "folding stability dG unfold"],
 "data": [
  ["SAMIIVAMAPDRMLIIGPDGRVLVVDDPEKAIELIKELFPVPIIVIPVPEDSPVFRELLERLERERTGESAG [r14_235_TrMRF]", "kcal/mol", "=", 2.91],
  ["SAGGMIIIEGMSEEEIKNLIKEAIKKGEKVKKIVIRVNGKLYLITVDAKTKKITVEEIPLEELKKKKSAGGS [r16_481_TrROS_Hall]", "kcal/mol", "=", 1.4],
  ["SAGGVITIRIPGIDNRNPETMRSKAVEIADRLRDHGVTVTDVEWDPDQGSMTITVMLPGQSLEDILKSAGGS [r8_344_TrROS]", "kcal/mol", "=", 2.42],
  ["SAGGFRINIPPNMPKEKLEEIQDEAEEESGMPVTINTNPDDGSLHIEFPGGPEWKQRRIQDEIRELLSAGGS [r16_227_TrROS]", "kcal/mol", "<", -1],
  ["SAGGPMPPGQPVNIHIEIENPNGNERTIPVPGPVGDPDWFKEIAEKLKEEGWKIKKIHPGNGVIEIKSAGGS [r8_497_TrROS]", "kcal/mol", "<", -1],
  ["SAGGSAGGSPMKIEAVELEDGTVAYRLEDGTVLLVTKNEDGTYTVKVFKNGKLVEEKEIKLPPSAGGSAGGS [r12_451_TrROS_Hall]", "kcal/mol", "=", 2.99],
  ["SAGKKKKYKIKIKIEISEDGTIKITIEIFDKNGKLVKKIEITIKLPKVKLSEEELKEAAKKGDLEKALKSAG [r5_944_TrROS_Hall]", "kcal/mol", "=", 2.95],
  ["SAGGSAGGSKAGQPIEGPVKIKFTSNGKPHEIDVEVYVLPPGNLIIYFPDESIMLPADNIEIESAGGSAGGS [r12_790_TrROS]", "kcal/mol", "=", 1.6],
  ["SAGGFRITPEFLEELLKNMPPGDPNKTITVKVEMPMRYEPRKGGNGQPQYRHEYPMTHEFPITIPPKSAGGS [r16_708_TrROS]", "kcal/mol", "=", -0.349],
  ["SAGGGMLEVTREPSPDGVTRYVVTVPADRTVTVTRPDGTTTTTAAPDADAVITYTVPPGTPVAVSLTPSAGG [r13_82_JUSTAS]", "kcal/mol", "=", 0.207],
  ["SAGGEEEILRQIREAAKKGEEVTIVFPKGMSIEELKKLIEEELGVEVEEIKVEKNENGELTVTIKVKSAGGS [r16_318_TrROS_Hall]", "kcal/mol", "=", 4.07],
  ["SAGGSAGGMVVRVTLPDGTVVTFEFESEEEFRKEFAASLGLAPDEIPEERIVSVERLSPEEYRSSAGGSAGG [r6_588_JUSTAS]", "kcal/mol", "=", 1.59],
  ["SAGGSAGGSAGGALEEKAKEIIEELKKKGIKVKEVKTSPNEITITFEDGSTKKIPIINGSAGGSAGGSAGGS [r10_169_JUSTAS]", "kcal/mol", "=", 2.66],
  ["SAGGELVLLIRVTPERIEIRLLPKEALEGLELEAPPGERLLLVELEPPPPEEEEREERRREEREELEESAGG [r13_74_TrROS_Hall]", "kcal/mol", "=", 1.32]
]}
